test-target: acetylcholinesterase (AChE) (Homo sapiens)
Sequence (P22303 32-614): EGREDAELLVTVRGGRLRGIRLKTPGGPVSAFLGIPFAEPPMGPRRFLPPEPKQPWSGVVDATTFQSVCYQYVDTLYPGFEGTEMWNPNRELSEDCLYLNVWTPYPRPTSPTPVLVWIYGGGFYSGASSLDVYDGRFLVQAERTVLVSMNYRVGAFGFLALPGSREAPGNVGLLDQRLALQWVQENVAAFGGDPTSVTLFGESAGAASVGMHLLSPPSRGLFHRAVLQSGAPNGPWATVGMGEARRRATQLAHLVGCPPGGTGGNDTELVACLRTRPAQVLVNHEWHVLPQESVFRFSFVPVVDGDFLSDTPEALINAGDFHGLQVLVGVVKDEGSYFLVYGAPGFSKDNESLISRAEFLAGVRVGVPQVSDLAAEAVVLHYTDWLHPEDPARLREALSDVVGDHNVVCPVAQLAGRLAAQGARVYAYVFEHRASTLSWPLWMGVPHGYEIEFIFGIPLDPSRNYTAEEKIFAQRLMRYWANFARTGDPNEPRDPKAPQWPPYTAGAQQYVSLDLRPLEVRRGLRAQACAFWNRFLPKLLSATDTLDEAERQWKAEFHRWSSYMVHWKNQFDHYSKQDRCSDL
pIC50: −log10 of the molar value.
Assign yes (1) whenever pIC50 does not fall below 6; assign no (0) whenever it does.

Examples from the recorded data:
O=C(CSc1nnc(-c2cc3cc(Br)ccc3o2)n1-c1ccc(Cl)c(Cl)c1)Nc1ccc(Cl)c(Cl)c1 [Compound 10e]    no (0)
COc1ccc(OC)c(NC(=O)CSc2nnc(-c3cc4cc(Br)ccc4o3)n2-c2ccc(Cl)c(Cl)c2)c1 [Compound 10d]    yes (1)

With those in mind, consider the next molecule.
Is the recorded value of pIC50 equal to or greater than 6 for this molecule? O=C(CSc1nnc(-c2cc3cc(Br)ccc3o2)n1-c1ccccc1)Nc1ccc([N+](=O)[O-])cc1 [Compound 10c]
no (0)

----------
# inhibition at 500 µM per entry
test-target: acetylcholinesterase (AChE) (Homo sapiens)
measurement-protocol: AChE inhibition assay (modified Ellman's method)
Assay type: biochemical
conditions: 0.5 mM
# output: bare number, implied unit %

Examples with answers:
COc1ccc(OC)c(NC(=O)CSc2nnc(-c3cc4cc(Br)ccc4o3)n2-c2ccc(Cl)c(Cl)c2)c1 [Compound 10d]    81.5
O=C(CSc1nnc(-c2cc3cc(Br)ccc3o2)n1-c1ccc(Cl)c(Cl)c1)Nc1ccc(Cl)c(Cl)c1 [Compound 10e]    51.2
Cc1ccc(NC(=O)CSc2nnc(-c3cc4cc(Br)ccc4o3)n2-c2ccccc2)cc1C [Compound 10b]    61.7
O=C(CSc1nnc(-c2cc3cc(Br)ccc3o2)n1-c1ccccc1)Nc1ccc([N+](=O)[O-])cc1 [Compound 10c]    55.9

Next compound, please.
What inhibition at 500 µM value was documented for this compound, O=C(CSc1nnc(-c2cc3cc(Br)ccc3o2)n1-c1ccccc1)Nc1ccccc1 [Compound 10a] ?
65.8
